# System: IGROV1 ovarian
# measurement.protocol: NCI-60 one-dose screen, 48 h
# setup.conditions: 10 µM unless noted
# Experimental: Growth inhibition of the IGROV1 human tumor cell line is measured as a screen for anti-cancer activity. Cells are grown in 96 well plates and exposed to the test compound for 48 hours. Compounds are tested at a single concentration, which is 10^-5 M for most compounds. The reported endpoint is percent growth (GI% or GIPRCNT), where numbers from 0 - 100% represent growth inhibition, and numbers from -100% - 0 represent cell death. For example, a value of 40 represents 60% growth inhibition. […]
About 83,000 compounds went through this panel and 20% of them were active in at least one assay; those are over-represented in the sample as a whole. Calls of active or inactive are those of the source. The calls were made as follows: active = growth percent below 10; inactive = the rest.
Valid outcomes are listed here; reply with one: t for active, f for inactive

Would you please look over these solved cases?
[
  {
    "compound": "CCCC(C)c1cc(Cc2cc(Cl)cc(Cl)c2O)c(O)c(Cc2cc(Cl)cc(Cl)c2O)c1 (configuration not stated)",
    "qualitative.label": "f"
  },
  {
    "compound": "CSc1nc(N)n2nccc2n1",
    "qualitative.label": "f"
  },
  {
    "compound": "Nc1ccc(S(=O)(=O)Nc2cc(F)cc(F)c2)cc1",
    "qualitative.label": "t"
  },
  {
    "compound": "CC(=O)NNC(=O)c1sc(NC(C)=O)nc1C",
    "qualitative.label": "f"
  },
  {
    "compound": "COc1ccc2cn3c4ccc(O)cc4[nH]c(=O)c3c2c1",
    "qualitative.label": "f"
  }
]

Q: Per the assay record, what outcome was assigned to COC(=O)c1ccc2[nH]c(O)c(C(=Nc3ccc(N(C)C(=O)CN4CCN(C)CC4)cc3)c3cccc(OC)c3)c2c1 ?
Ans: t

Q: Fill in: this test's call for O=C(CCl)c1ccc2c(c1)CCCC2 is ___
Ans: f

* * *

# Test system: UACC-257 melanoma
# measurement.protocol: NCI-60 one-dose screen, 48 h
# setup.conditions: 10 µM unless noted
About 83,000 compounds went through this panel and 20% of them were active in at least one assay; those are over-represented in the sample as a whole. Active and inactive are the calls of the source. Rule for the calls: active = growth percent below 10; inactive = the rest.
# output must be one of y = active, n = inactive

Worked examples, 3 compounds total:
[
  {
    "compound": "CC/C(=N\\Nc1nc2ccccc2n1C)c1ccccn1",
    "qualitative.label": "y"
  },
  {
    "compound": "CCOc1ccccc1/C=N\\N=C(N/N=C/c1ccccc1OCC)N/N=C/c1ccccc1OCC",
    "qualitative.label": "y"
  },
  {
    "compound": "NNC(=O)CNc1ccc2ccccc2c1",
    "qualitative.label": "n"
  }
]

Q: So what was the verdict on Cc1[nH]n(C(=S)Nc2nc3cc(Cl)c(F)cc3s2)c(=O)c1N=Nc1ccc(F)c(Cl)c1 in this test?
Ans: y

Q: Which outcome did this test record for the compound COC(=O)C1CC(=O)N(C(=O)Nc2ccc(Cl)cc2Cl)C1 (stereo unspecified) ?
Ans: n

Q: Record request — test call for COc1ccc(OC)c(Cn2cc3c(c2-c2ccccc2)CCc2cnoc2-3)c1
Ans: n

Q: Would you mind telling me which call this test gave Cc1ccccc1-n1c(C)nc2cc(NC(=O)c3ccc(Cl)cc3)ccc2c1=O ?
Ans: n

Q: In this assay, the call recorded for CC(C)(C)c1ccc(OCCOC(=O)CBr)cc1 was what?
Ans: n

Q: I would be grateful if you could indicate the recorded call for COc1ccc(C(O)(c2ccccc2)C(C(=O)O)c2ccccc2)cc1 (stereo unspecified) .
Ans: n

Provenance of the data: PubChem BioAssay (NCI)
